# Test parameters: 318.15 K; 101.33 kPa; Liquid
Assay readout: viscosity (mPa·s)

{"columns": ["Molecule", "Value units", "viscosity"],
 "data": [
  ["CCCCCCCCCCCCOS(=O)(=O)[O-].CCCCCCn1cc[n+](CCC#N)c1 [3-(2-cyanoethyl)-1-hexyl-1H-imidazolium dodecyl sulfate]", "mPa·s", 2051]
]}

a = CCCCCCn1cc[n+](CCC#N)c1.O=S(=O)([O-])c1ccccc1 [3-(2-cyanoethyl)-1-hexyl-1H-imidazolium benzenesulfonate]
b = CCCCCCn1cc[n+](CCC#N)c1.O=S(=O)([O-])C(F)(F)F
c = CCCCCCn1cc[n+](CCC#N)c1.O=C([O-])c1cccc(S(=O)(=O)O)c1 [3-(2-cyanoethyl)-1-hexyl-1H-imidazolium 3-sulfobenzoate]
d = CCCCC(CC)COC(=O)CC(C(=O)OCC(CC)CCCC)S(=O)(=O)[O-].CCCCCC[n+]1ccn(CCC#N)c1 (stereo not given)
Let's sort these by viscosity, smallest first. Go ahead? # respond with the labels, arranged in the requested order
b, a, c, d
(b: 301.9 mPa·s, a: 781.3 mPa·s, c: 1953.3 mPa·s, d: 2939.5 mPa·s)

* * *

# Assay method text: refractive index (Na D-line) (dimensionless)
# Test parameters: 308.15 K; 101.33 kPa; Liquid; Standard Abbe refractometry
Assay readout: refractive index

{"columns": ["Compound", "refractive index"],
 "data": [
  ["CCCCC(CC)COC(=O)CC(C(=O)OCC(CC)CCCC)S(=O)(=O)[O-].CCCCCC[n+]1ccn(CCC#N)c1 (stereo not given)", 1.47709],
  ["CCCCCCn1cc[n+](CCC#N)c1.O=S(=O)([O-])c1ccccc1 [3-(2-cyanoethyl)-1-hexyl-1H-imidazolium benzenesulfonate]", 1.52499],
  ["CCCCCCn1cc[n+](CCC#N)c1.O=C([O-])c1cccc(S(=O)(=O)O)c1 [3-(2-cyanoethyl)-1-hexyl-1H-imidazolium 3-sulfobenzoate]", 1.52146],
  ["CCCCCCn1cc[n+](CCC#N)c1.O=S(=O)([O-])C(F)(F)F", 1.52774],
  ["CCCCCCCCCCCCOS(=O)(=O)[O-].CCCCCCn1cc[n+](CCC#N)c1 [3-(2-cyanoethyl)-1-hexyl-1H-imidazolium dodecyl sulfate]", 1.48125]
]}

* * *

# Assay method text: refractive index (Na D-line) (dimensionless)
# Test parameters: 303.15 K; 101.33 kPa; Liquid; Standard Abbe refractometry
Assay readout: refractive index

{"columns": ["Molecule", "Experimental result"],
 "data": [
  ["CCCCCCn1cc[n+](CCC#N)c1.O=S(=O)([O-])C(F)(F)F", 1.52891],
  ["CCCCC(CC)COC(=O)CC(C(=O)OCC(CC)CCCC)S(=O)(=O)[O-].CCCCCC[n+]1ccn(CCC#N)c1 (stereo not given)", 1.47841],
  ["CCCCCCCCCCCCOS(=O)(=O)[O-].CCCCCCn1cc[n+](CCC#N)c1 [3-(2-cyanoethyl)-1-hexyl-1H-imidazolium dodecyl sulfate]", 1.48269],
  ["CCCCCCn1cc[n+](CCC#N)c1.O=S(=O)([O-])c1ccccc1 [3-(2-cyanoethyl)-1-hexyl-1H-imidazolium benzenesulfonate]", 1.5261],
  ["CCCCCCn1cc[n+](CCC#N)c1.O=C([O-])c1cccc(S(=O)(=O)O)c1 [3-(2-cyanoethyl)-1-hexyl-1H-imidazolium 3-sulfobenzoate]", 1.52221]
]}

* * *

# Test parameters: 293.15 K; 101.33 kPa; Liquid; Vibrating tube method
Assay readout: mass density (kg/m3)

{"columns": ["Compound", "Assay readout", "Experimental result"],
 "data": [
  ["CCCCCCn1cc[n+](CCC#N)c1.O=S(=O)([O-])C(F)(F)F", "mass density", 1289.6],
  ["CCCCCCCCCCCCOS(=O)(=O)[O-].CCCCCCn1cc[n+](CCC#N)c1 [3-(2-cyanoethyl)-1-hexyl-1H-imidazolium dodecyl sulfate]", "mass density", 1101.1],
  ["CCCCCCn1cc[n+](CCC#N)c1.O=S(=O)([O-])c1ccccc1 [3-(2-cyanoethyl)-1-hexyl-1H-imidazolium benzenesulfonate]", "mass density", 1226],
  ["CCCCC(CC)COC(=O)CC(C(=O)OCC(CC)CCCC)S(=O)(=O)[O-].CCCCCC[n+]1ccn(CCC#N)c1 (stereo not given)", "mass density", 1092.7],
  ["CCCCCCn1cc[n+](CCC#N)c1.O=C([O-])c1cccc(S(=O)(=O)O)c1 [3-(2-cyanoethyl)-1-hexyl-1H-imidazolium 3-sulfobenzoate]", "mass density", 1248.1]
]}

* * *

# Assay method text: refractive index (Na D-line) (dimensionless)
# Test parameters: 328.15 K; 101.33 kPa; Liquid; Standard Abbe refractometry
Assay readout: refractive index

{"columns": ["Molecule", "refractive index"],
 "data": [
  ["CCCCCCCCCCCCOS(=O)(=O)[O-].CCCCCCn1cc[n+](CCC#N)c1 [3-(2-cyanoethyl)-1-hexyl-1H-imidazolium dodecyl sulfate]", 1.47566],
  ["CCCCCCn1cc[n+](CCC#N)c1.O=S(=O)([O-])c1ccccc1 [3-(2-cyanoethyl)-1-hexyl-1H-imidazolium benzenesulfonate]", 1.52025],
  ["CCCCC(CC)COC(=O)CC(C(=O)OCC(CC)CCCC)S(=O)(=O)[O-].CCCCCC[n+]1ccn(CCC#N)c1 (stereo not given)", 1.47171],
  ["CCCCCCn1cc[n+](CCC#N)c1.O=S(=O)([O-])C(F)(F)F", 1.52334],
  ["CCCCCCn1cc[n+](CCC#N)c1.O=C([O-])c1cccc(S(=O)(=O)O)c1 [3-(2-cyanoethyl)-1-hexyl-1H-imidazolium 3-sulfobenzoate]", 1.51666]
]}

* * *

# Test parameters: 318.15 K; 101.33 kPa; Liquid; Vibrating tube method
Assay readout: mass density (kg/m3)

{"columns": ["Molecule", "Value units", "Experimental result"],
 "data": [
  ["CCCCC(CC)COC(=O)CC(C(=O)OCC(CC)CCCC)S(=O)(=O)[O-].CCCCCC[n+]1ccn(CCC#N)c1 (stereo not given)", "kg/m3", 1074.8],
  ["CCCCCCn1cc[n+](CCC#N)c1.O=S(=O)([O-])c1ccccc1 [3-(2-cyanoethyl)-1-hexyl-1H-imidazolium benzenesulfonate]", "kg/m3", 1209.6],
  ["CCCCCCn1cc[n+](CCC#N)c1.O=S(=O)([O-])C(F)(F)F", "kg/m3", 1271],
  ["CCCCCCCCCCCCOS(=O)(=O)[O-].CCCCCCn1cc[n+](CCC#N)c1 [3-(2-cyanoethyl)-1-hexyl-1H-imidazolium dodecyl sulfate]", "kg/m3", 1084.7],
  ["CCCCCCn1cc[n+](CCC#N)c1.O=C([O-])c1cccc(S(=O)(=O)O)c1 [3-(2-cyanoethyl)-1-hexyl-1H-imidazolium 3-sulfobenzoate]", "kg/m3", 1231.5]
]}

* * *

# Assay method text: refractive index (Na D-line) (dimensionless)
# Test parameters: 298.15 K; 101.33 kPa; Liquid; Standard Abbe refractometry
Assay readout: refractive index

{"columns": ["Compound", "refractive index"],
 "data": [
  ["CCCCCCn1cc[n+](CCC#N)c1.O=S(=O)([O-])C(F)(F)F", 1.52975],
  ["CCCCCCCCCCCCOS(=O)(=O)[O-].CCCCCCn1cc[n+](CCC#N)c1 [3-(2-cyanoethyl)-1-hexyl-1H-imidazolium dodecyl sulfate]", 1.48409],
  ["CCCCCCn1cc[n+](CCC#N)c1.O=S(=O)([O-])c1ccccc1 [3-(2-cyanoethyl)-1-hexyl-1H-imidazolium benzenesulfonate]", 1.527],
  ["CCCCC(CC)COC(=O)CC(C(=O)OCC(CC)CCCC)S(=O)(=O)[O-].CCCCCC[n+]1ccn(CCC#N)c1 (stereo not given)", 1.4797],
  ["CCCCCCn1cc[n+](CCC#N)c1.O=C([O-])c1cccc(S(=O)(=O)O)c1 [3-(2-cyanoethyl)-1-hexyl-1H-imidazolium 3-sulfobenzoate]", 1.52295]
]}

* * *

# Test parameters: 348.15 K; 101.33 kPa; Liquid; Vibrating tube method
Assay readout: mass density (kg/m3)

{"columns": ["Compound", "Value units", "mass density"],
 "data": [
  ["CCCCCCn1cc[n+](CCC#N)c1.O=S(=O)([O-])C(F)(F)F", "kg/m3", 1249.2],
  ["CCCCCCn1cc[n+](CCC#N)c1.O=C([O-])c1cccc(S(=O)(=O)O)c1 [3-(2-cyanoethyl)-1-hexyl-1H-imidazolium 3-sulfobenzoate]", "kg/m3", 1212.1],
  ["CCCCCCn1cc[n+](CCC#N)c1.O=S(=O)([O-])c1ccccc1 [3-(2-cyanoethyl)-1-hexyl-1H-imidazolium benzenesulfonate]", "kg/m3", 1190.1],
  ["CCCCCCCCCCCCOS(=O)(=O)[O-].CCCCCCn1cc[n+](CCC#N)c1 [3-(2-cyanoethyl)-1-hexyl-1H-imidazolium dodecyl sulfate]", "kg/m3", 1065.6],
  ["CCCCC(CC)COC(=O)CC(C(=O)OCC(CC)CCCC)S(=O)(=O)[O-].CCCCCC[n+]1ccn(CCC#N)c1 (stereo not given)", "kg/m3", 1054.2]
]}
